- TARGET_SYSTEM: Epidermal growth factor receptor (Homo sapiens)
- ASSAY_PROTOCOL: Inhibit of epidermal growth factor receptor (EGFR)
Could you please report measured pIC50 for the items listed next?
Answers are plain numbers, as −log10 of the molar value.

Tell me the measured pIC50 of CCn1cnc2c(Nc3cccc(Cl)c3)nc(N[C@@H]3CCCC[C@@H]3N)nc21 (stereo in doubt; 13) , please.
5.29

New cases:
Tell me the measured pIC50 of CCn1cnc2c(Nc3cccc(Cl)c3)nc(N[C@@H]3CCCC[C@@H]3N)nc21 (stereo in doubt; 12) , please.
5.70

====

- TARGET_SYSTEM: Cyclin-dependent kinase 1 (Homo sapiens, UniProt P06493)
- Sequence (P06493 whole entry): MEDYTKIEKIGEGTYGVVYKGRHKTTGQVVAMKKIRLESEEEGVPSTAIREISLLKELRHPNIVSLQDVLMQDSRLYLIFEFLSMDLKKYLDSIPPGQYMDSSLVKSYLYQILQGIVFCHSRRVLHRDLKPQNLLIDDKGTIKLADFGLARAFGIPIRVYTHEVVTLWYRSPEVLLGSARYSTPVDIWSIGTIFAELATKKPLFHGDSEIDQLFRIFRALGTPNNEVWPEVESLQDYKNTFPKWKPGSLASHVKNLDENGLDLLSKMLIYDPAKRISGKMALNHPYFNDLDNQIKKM
- ASSAY_PROTOCOL: Inhibitory activity against cyclin-dependent kinase 1 (CDK1) was determined
Field: label. Allowed values: Criterion met (IC50 < 0.3 µM) or Criterion not met (IC50 >= 0.3 µM).

Lab note: confirm whether the reported IC50 for this compound is below 0.3 µM, equality not counting. compound: CCn1cnc2c(Nc3cccc(Cl)c3)nc(N3CCC[C@@H]3CO)nc21
Criterion met

Lab note: confirm whether the reported IC50 for this compound is below 0.3 µM, equality not counting. compound: CCn1cnc2c(Nc3ccc(F)cc3)nc(N[C@@H]3CCCC[C@@H]3N)nc21
Criterion met

Lab note: confirm whether the reported IC50 for this compound is below 0.3 µM, equality not counting. compound: CCn1cnc2c(Nc3cccc(C#N)c3)nc(N[C@H]3CC[C@H](N)CC3)nc21
Criterion met

New cases:
Lab note: confirm whether the reported IC50 for this compound is below 0.3 µM, equality not counting. compound: CCn1cnc2c(Nc3cccc(C#N)c3)nc(N[C@H]3CC[C@@H](N)CC3)nc21
Criterion not met

Lab note: confirm whether the reported IC50 for this compound is below 0.3 µM, equality not counting. compound: CCn1cnc2c(Nc3cccc(OC)c3)nc(N[C@H]3CC[C@@H](N)CC3)nc21
Criterion not met

Lab note: confirm whether the reported IC50 for this compound is below 0.3 µM, equality not counting. compound: CCn1cnc2c(Nc3ccc(F)cc3)nc(N[C@H]3CC[C@H](N)CC3)nc21
Criterion met

Lab note: confirm whether the reported IC50 for this compound is below 0.3 µM, equality not counting. compound: CCn1cnc2c(Nc3cccc(F)c3)nc(N[C@H]3CC[C@H](O)CC3)nc21
Criterion met

Lab note: confirm whether the reported IC50 for this compound is below 0.3 µM, equality not counting. compound: CCn1cnc2c(Nc3cccc(Cl)c3)nc(N[C@H]3CC[C@@H](N)CC3)nc21 (stereo in doubt)
Criterion met

Lab note: confirm whether the reported IC50 for this compound is below 0.3 µM, equality not counting. compound: CCn1cnc2c(Nc3cccc(OC)c3)nc(N[C@H]3CC[C@H](N)CC3)nc21
Criterion met

Lab note: confirm whether the reported IC50 for this compound is below 0.3 µM, equality not counting. compound: CCn1cnc2c(Nc3cccc(Cl)c3)nc(N3CCC[C@@H]3CN)nc21
Criterion met

Lab note: confirm whether the reported IC50 for this compound is below 0.3 µM, equality not counting. compound: CCn1cnc2c(Nc3cccc(Cl)c3)nc(N[C@H]3CCC[C@@H](N)C3)nc21
Criterion met

Lab note: confirm whether the reported IC50 for this compound is below 0.3 µM, equality not counting. compound: CCn1cnc2c(Nc3cccc(C(F)(F)F)c3)nc(N[C@H]3CC[C@H](N)CC3)nc21
Criterion met

Lab note: confirm whether the reported IC50 for this compound is below 0.3 µM, equality not counting. compound: CCn1cnc2c(Nc3cccc(Cl)c3)nc(N3CCCCC3CO)nc21 (stereo unspecified)
Criterion met

Lab note: confirm whether the reported IC50 for this compound is below 0.3 µM, equality not counting. compound: CCn1cnc2c(Nc3cccc(C#N)c3)nc(N[C@@H]3CCCC[C@@H]3N)nc21
Criterion not met

Lab note: confirm whether the reported IC50 for this compound is below 0.3 µM, equality not counting. compound: CCn1cnc2c(Nc3ccc(F)cc3)nc(N[C@H]3CC[C@@H](N)CC3)nc21
Criterion met

Lab note: confirm whether the reported IC50 for this compound is below 0.3 µM, equality not counting. compound: CCn1cnc2c(Nc3cccc(C(F)(F)F)c3)nc(N[C@H]3CC[C@@H](N)CC3)nc21
Criterion met

====

- TARGET_SYSTEM: cAMP-dependent protein kinase (PKA) (Homo sapiens, UniProt P22694+P17612+P22612)
- ASSAY_PROTOCOL: Inhibition of Protein kinase A
- Format: protein assay
PROPERTY: IC50 (µM)
Numbers only, in µM.

The following compounds have reported results that may help.
I'm curious: which IC50 was measured for CCn1cnc2c(Nc3cccc(Cl)c3)nc(N[C@@H]3CCCC[C@@H]3N)nc21 (stereo in doubt; 13) tested on cAMP-dependent protein kinase (PKA) (Homo sapiens, UniProt P22694+P17612+P22612)?
150

I'm curious: which IC50 was measured for CCn1cnc2c(Nc3cccc(C(F)(F)F)c3)nc(NCCN)nc21.Cl tested on cAMP-dependent protein kinase (PKA) (Homo sapiens, UniProt P22694+P17612+P22612)?
500

I'm curious: which IC50 was measured for CCn1cnc2c(Nc3cccc(Cl)c3)nc(N[C@H]3CCC[C@@H](N)C3)nc21 tested on cAMP-dependent protein kinase (PKA) (Homo sapiens, UniProt P22694+P17612+P22612)?
150

I'm curious: which IC50 was measured for CCn1cnc2c(Nc3cccc(Cl)c3)nc(N[C@@H]3CCCC[C@@H]3N)nc21 (stereo in doubt; 12) tested on cAMP-dependent protein kinase (PKA) (Homo sapiens, UniProt P22694+P17612+P22612)?
335

New cases:
I'm curious: which IC50 was measured for CCn1cnc2c(Nc3cccc(Cl)c3)nc(NCCN)nc21 tested on cAMP-dependent protein kinase (PKA) (Homo sapiens, UniProt P22694+P17612+P22612)?
180

====

- TARGET_SYSTEM: UniProt:P06493
- ASSAY_PROTOCOL: Inhibitory activity against cyclin-dependent kinase 1 (CDK1) was determined
Could you please report measured pIC50 for the items listed next?
One number for each entry, as −log10 of the molar value.

Tell me the measured pIC50 of CCn1cnc2c(Nc3cccc(Cl)c3)nc(N[C@@H]3CCCC[C@@H]3N)nc21 (stereo in doubt) , please.
7.51

For every item below, please supply its pIC50.
1. CCn1cnc2c(Nc3ccc(F)cc3)nc(NCCN)nc21
2. CCn1cnc2c(Nc3cccc(C(F)(F)F)c3)nc(N[C@H]3CC[C@H](O)CC3)nc21
3. CCn1cnc2c(Nc3cccc(Cl)c3)nc(NCCO)nc21
4. CCn1cnc2c(Nc3cccc(Cl)c3)nc(N[C@H]3CC[C@H](O)CC3)nc21

1. 6.35
2. 7.55
3. 6.48
4. 7.52

====

- TARGET_SYSTEM: Protein kinase C alpha type (Homo sapiens, UniProt P17252)
Could you please report measured pIC50 for the items listed next?
Answers are plain numbers, as −log10 of the molar value.

Tell me the measured pIC50 of CCn1cnc2c(Nc3cccc(Cl)c3)nc(N[C@@H]3CCCC[C@@H]3N)nc21 (stereo in doubt; 13) , please.
4.87

# context switch: different molecule, same pIC50
Tell me the measured pIC50 of CCn1cnc2c(Nc3cccc(Cl)c3)nc(N[C@@H]3CCCC[C@@H]3N)nc21 (stereo in doubt; 12) , please.
4.52

====

- TARGET_SYSTEM: Epidermal growth factor receptor (Homo sapiens, UniProt P00533)
- Sequence (P00533 whole entry): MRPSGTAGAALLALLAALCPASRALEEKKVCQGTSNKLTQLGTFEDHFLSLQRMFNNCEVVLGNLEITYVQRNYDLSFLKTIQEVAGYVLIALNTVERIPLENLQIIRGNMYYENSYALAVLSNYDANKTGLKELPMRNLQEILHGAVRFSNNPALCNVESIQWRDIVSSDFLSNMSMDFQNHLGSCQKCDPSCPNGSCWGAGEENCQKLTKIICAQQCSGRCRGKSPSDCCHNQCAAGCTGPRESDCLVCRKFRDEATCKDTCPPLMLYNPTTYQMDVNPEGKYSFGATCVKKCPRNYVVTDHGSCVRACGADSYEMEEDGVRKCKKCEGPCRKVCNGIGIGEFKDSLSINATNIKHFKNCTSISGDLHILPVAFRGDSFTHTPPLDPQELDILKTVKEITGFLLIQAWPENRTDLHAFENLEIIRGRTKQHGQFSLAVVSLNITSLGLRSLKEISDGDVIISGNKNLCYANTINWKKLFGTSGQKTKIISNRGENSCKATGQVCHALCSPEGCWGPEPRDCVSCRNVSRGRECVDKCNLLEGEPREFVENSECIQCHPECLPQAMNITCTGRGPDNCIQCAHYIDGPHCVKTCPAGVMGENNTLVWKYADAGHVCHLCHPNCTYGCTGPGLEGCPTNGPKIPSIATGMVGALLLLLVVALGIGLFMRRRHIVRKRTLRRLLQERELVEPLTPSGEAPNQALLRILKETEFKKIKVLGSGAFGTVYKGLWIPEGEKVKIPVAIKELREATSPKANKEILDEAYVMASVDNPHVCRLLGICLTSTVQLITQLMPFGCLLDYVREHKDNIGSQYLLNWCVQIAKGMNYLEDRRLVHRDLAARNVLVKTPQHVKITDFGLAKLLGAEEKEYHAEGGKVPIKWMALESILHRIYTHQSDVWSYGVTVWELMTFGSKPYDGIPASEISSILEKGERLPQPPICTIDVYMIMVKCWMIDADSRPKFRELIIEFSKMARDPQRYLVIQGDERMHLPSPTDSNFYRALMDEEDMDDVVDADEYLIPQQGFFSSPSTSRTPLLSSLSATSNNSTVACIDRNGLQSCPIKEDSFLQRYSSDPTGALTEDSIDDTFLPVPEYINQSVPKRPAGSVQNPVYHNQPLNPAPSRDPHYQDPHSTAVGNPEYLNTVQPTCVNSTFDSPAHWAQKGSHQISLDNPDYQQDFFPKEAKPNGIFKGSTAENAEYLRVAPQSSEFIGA
- ASSAY_PROTOCOL: Inhibit of epidermal growth factor receptor (EGFR)
PROPERTY: IC50

The following molecules have reported results that may help.
Tell me the measured IC50 of CCn1cnc2c(Nc3cccc(C#N)c3)nc(NCCN)nc21.Cl , please.
> 10 µM

Tell me the measured IC50 of CCn1cnc2c(Nc3cccc(C(F)(F)F)c3)nc(NCCN)nc21.Cl , please.
> 10 µM

New cases:
Tell me the measured IC50 of CCn1cnc2c(Nc3cccc(Cl)c3)nc(NCCN)nc21 , please.
> 100 µM

====

Could you please report measured IC50 for the items listed next?
- TARGET_SYSTEM: UniProt P06493
- ASSAY_PROTOCOL: Inhibitory activity against cyclin-dependent kinase 1 (CDK1) was determined
Numbers only, in µM.

Tell me the measured IC50 of CCn1cnc2c(Nc3cccc(Cl)c3)nc(N[C@H]3CC[C@@H](N)CC3)nc21 (stereo in doubt; 15) , please.
0.039

Tell me the measured IC50 of CCn1cnc2c(Nc3ccc(OC)cc3)nc(NCCN)nc21 , please.
0.55

Tell me the measured IC50 of CCn1cnc2c(Nc3cccc(C#N)c3)nc(NCCN)nc21 , please.
0.56

Tell me the measured IC50 of CCn1cnc2c(Nc3cccc(C(F)(F)F)c3)nc(N[C@@H]3CCCC[C@@H]3N)nc21 , please.
0.31

Tell me the measured IC50 of CCn1cnc2c(Nc3cccc(OC)c3)nc(N[C@H]3CC[C@H](O)CC3)nc21 , please.
0.09

For every item below, please supply its IC50.
1. CCn1cnc2c(Nc3cccc(OC)c3)nc(NCCO)nc21
2. CCn1cnc2c(Nc3ccc(F)cc3)nc(NCCN)nc21
3. CCn1cnc2c(Nc3cccc(Cl)c3)nc(N[C@H]3CC[C@H](N)CC3)nc21
4. CCn1cnc2c(Nc3cccc(Cl)c3)nc(NCCN)nc21
5. CCn1cnc2c(Nc3ccc(F)cc3)nc(N[C@H]3CC[C@H](O)CC3)nc21
6. CCn1cnc2c(Nc3cccc(C#N)c3)nc(N[C@H]3CC[C@H](O)CC3)nc21
7. CCn1cnc2c(Nc3cccc(F)c3)nc(N[C@H]3CC[C@H](N)CC3)nc21

1: 1; 2: 0.45; 3: 0.039; 4: 0.08; 5: 0.04; 6: 0.028; 7: 0.15
